B1: tRNA (parent)
chain: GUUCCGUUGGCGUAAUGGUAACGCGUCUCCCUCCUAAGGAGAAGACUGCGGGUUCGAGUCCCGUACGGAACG

variants of: B1; experiment: yeast fitness relative to wild type (ratio to wild type); higher = fitter; tRNA-Arg(CCU), competitive growth, 37 C, YPD
Variants at the floor of the assay were thinned out.
Reported yeast fitness values for the following variants.
Lab note: record the figure alone, no unit after it.

// known answers, use as guide
C31U A43C U54C
0.596
U2G G17A G23A G38C A40G
0.694
G9A A15C G58C
0.581
U7C G48A
0.884

Please fill in: yeast fitness reported for C30A U35C = 0.93

Reported yeast fitness ( A20C G25C A40U ) = 0.605

Looking up A57C , I see its yeast fitness listed as 0.62

Entry under test: U2G C5G C34G C49G . Its yeast fitness was 0.505

U47C U59C yielded yeast fitness of 0.926

The recorded yeast fitness for G44C C49U U64G G67A is 0.512

What the record says about G6A A45C G58A : yeast fitness is 0.519

Reported yeast fitness ( U26A C33A ) = 0.689

Per the records, this variant ( A14G U26G ) has yeast fitness equal to 0.81

Per the records, this variant ( C24G A42C C60U U64A ) has yeast fitness equal to 0.562

For C5G G44U the variant record lists yeast fitness as 0.626
